Give measured inhibition at 1 µM for each item. Keep answers brief.
molecular target: UniProt:Q9UQD0; assay: INaL inhibition at hNaV1.6, PatchXpress electrophysiology; type: cell-based; details: HEK293; 1 μM; HEK-293 cells expressing hNaV1.6; late current evoked by 300 nM ATX-II; read-out: INaL v1.6 (1 μM, % Inhibition)

N#CC1(c2ccc(-c3cn4c(C(F)(F)F)nnc4cn3)cc2)CCC1 [Compound 71] = 30 to 70%
Cc1nc(-c2ccc(OC(F)(F)F)cc2)cn2c(C(F)(F)F)nnc12 [Compound 168] = 30 to 70%
Fc1cc(-c2ccc3nnc(C4(F)CC4)n3n2)cnc1OCC(F)(F)F [Compound 88] = 30 to 70%
FC(F)Oc1ccc(-c2cn3c(C(F)F)nnc3cn2)cc1 [Compound 138] = < 30%
FC(F)(F)Oc1ccc(-c2ccc3nnc(CC4CCOC4)n3n2)cc1 (stereo not drawn) [Compound 10] = 30 to 70%
Fc1cc(-c2cn3c(C(F)(F)F)nnc3cn2)ccc1OC1CC(F)(F)C1 [Compound 194] = 30 to 70%
N#CC1(c2ccc(-c3cn4c(C(F)(F)F)nnc4cn3)cc2)CC1 [Compound 67] = < 30%
FC(F)c1nnc2cnc(-c3ccc([C@H]4CC4(F)F)cc3)cn12 [Compound 166] = 30 to 70%

Let us move to another entry and its inhibition at 1 µM.
Return reported inhibition at 1 µM. Input compound: Fc1cc(-c2cn3c(C(F)(F)F)nnc3cn2)cnc1OCC(F)(F)F [Compound 78]
30 to 70%

###

Give measured inhibition at 1 µM for each item. Keep answers brief.
target: human NaV1.6 (hNaV1.6) (Homo sapiens (Human), UniProt Q9UQD0); assay: INaL inhibition at hNaV1.6, PatchXpress electrophysiology; assay type: cell-based; details: HEK293; 1 μM; HEK-293 cells expressing hNaV1.6; late current evoked by 300 nM ATX-II; read-out: INaL v1.6 (1 μM, % Inhibition)
Sequence (Q9UQD0 whole entry): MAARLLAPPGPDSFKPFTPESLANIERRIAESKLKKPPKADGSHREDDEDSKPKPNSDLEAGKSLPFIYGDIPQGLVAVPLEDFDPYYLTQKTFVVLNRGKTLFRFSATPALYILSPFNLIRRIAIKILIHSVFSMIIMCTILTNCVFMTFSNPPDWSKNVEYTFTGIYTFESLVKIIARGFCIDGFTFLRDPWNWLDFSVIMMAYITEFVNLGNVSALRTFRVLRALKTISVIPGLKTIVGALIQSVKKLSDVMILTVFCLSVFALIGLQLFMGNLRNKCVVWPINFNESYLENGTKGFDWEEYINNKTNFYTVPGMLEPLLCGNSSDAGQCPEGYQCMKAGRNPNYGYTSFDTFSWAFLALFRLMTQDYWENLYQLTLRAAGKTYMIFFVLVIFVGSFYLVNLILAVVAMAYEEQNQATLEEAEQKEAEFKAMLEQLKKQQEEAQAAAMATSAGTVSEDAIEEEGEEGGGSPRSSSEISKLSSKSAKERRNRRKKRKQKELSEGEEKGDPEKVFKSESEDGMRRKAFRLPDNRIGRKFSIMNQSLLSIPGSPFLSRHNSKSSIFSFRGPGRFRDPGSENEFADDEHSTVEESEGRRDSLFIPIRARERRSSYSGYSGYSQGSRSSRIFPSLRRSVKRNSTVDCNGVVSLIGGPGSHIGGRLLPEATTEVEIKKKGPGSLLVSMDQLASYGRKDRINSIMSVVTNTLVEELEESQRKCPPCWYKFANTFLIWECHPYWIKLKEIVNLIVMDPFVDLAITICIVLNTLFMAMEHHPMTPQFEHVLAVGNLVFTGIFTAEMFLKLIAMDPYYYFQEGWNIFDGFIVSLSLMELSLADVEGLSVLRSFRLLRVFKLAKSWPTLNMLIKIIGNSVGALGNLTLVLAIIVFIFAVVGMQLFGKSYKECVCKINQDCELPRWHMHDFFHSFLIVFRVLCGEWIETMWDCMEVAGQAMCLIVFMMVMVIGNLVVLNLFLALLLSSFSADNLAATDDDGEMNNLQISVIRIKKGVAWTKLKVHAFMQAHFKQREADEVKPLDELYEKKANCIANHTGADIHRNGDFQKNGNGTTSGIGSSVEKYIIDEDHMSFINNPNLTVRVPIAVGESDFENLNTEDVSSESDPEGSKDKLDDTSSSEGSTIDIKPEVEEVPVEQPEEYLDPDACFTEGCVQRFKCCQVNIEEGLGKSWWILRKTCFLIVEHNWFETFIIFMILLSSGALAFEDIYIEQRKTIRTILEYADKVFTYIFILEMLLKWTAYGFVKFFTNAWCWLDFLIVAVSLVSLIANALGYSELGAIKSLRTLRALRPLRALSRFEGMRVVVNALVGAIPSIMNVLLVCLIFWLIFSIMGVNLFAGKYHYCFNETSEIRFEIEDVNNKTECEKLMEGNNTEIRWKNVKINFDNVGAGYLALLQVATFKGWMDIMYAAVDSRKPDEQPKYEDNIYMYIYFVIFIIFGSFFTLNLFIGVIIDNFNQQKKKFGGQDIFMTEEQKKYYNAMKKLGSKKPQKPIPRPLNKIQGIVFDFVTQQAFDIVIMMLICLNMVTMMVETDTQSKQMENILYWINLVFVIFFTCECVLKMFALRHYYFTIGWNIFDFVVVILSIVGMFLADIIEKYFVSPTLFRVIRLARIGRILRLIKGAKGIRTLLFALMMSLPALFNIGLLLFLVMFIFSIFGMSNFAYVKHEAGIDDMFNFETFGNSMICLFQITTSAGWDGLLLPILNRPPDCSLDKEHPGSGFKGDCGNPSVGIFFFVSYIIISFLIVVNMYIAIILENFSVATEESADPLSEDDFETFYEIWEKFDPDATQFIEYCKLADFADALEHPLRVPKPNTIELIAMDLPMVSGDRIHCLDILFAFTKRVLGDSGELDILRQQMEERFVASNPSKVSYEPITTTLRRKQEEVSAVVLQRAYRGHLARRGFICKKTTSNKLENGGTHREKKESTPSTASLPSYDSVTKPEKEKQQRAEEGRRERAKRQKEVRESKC

Look over these answered cases.
Fc1cc(-c2cn3c(C(F)(F)F)nnc3cn2)ccc1OC(F)(F)F = > 70%
Fc1cc2nnc(C(F)(F)F)n2nc1-c1ccc(OC(F)(F)F)cc1 = > 70%
FC(F)(F)Oc1ccc(-c2cn3c(C4(F)CC4)nnc3cn2)cc1 = 30 to 70%

# batch: return inhibition at 1 µM for each of the 6 molecules below
1. FC(F)(F)COc1ccc(-c2ccc3nnc(C(F)(F)F)n3n2)nc1
2. Cc1cc2nnc(C(F)(F)F)n2nc1-c1ccc(OC(F)(F)F)cc1
3. Cc1cc(-c2ccc(OC(F)(F)F)cc2)nn2c(C(F)(F)F)nnc12
4. Fc1cc(OC(F)(F)F)ccc1-c1cn2c(C(F)F)nnc2cn1
5. COCc1cc(OC(F)(F)F)ccc1-c1ccc2nnc(C(F)F)n2n1
6. FC(F)(F)COc1ccc(-c2ccc3nnc(C4CC4)n3n2)cn1

30 to 70%
30 to 70%
< 30%
30 to 70%
30 to 70%
30 to 70%

###

target: human NaV1.6 (hNaV1.6) (Homo sapiens (Human)); experiment: INaL inhibition at hNaV1.6, PatchXpress electrophysiology; type: cell-based; conditions: HEK293, read-out: INaL v1.6 (1 μM, % Inhibition)
Give measured inhibition at 1 µM for each item. Keep answers brief.

Look over these answered cases.
N#CC1(c2ccc(-c3ccc4nnc(C(F)(F)F)n4n3)cc2F)CC1 = < 30%
OCc1nnc2ccc(-c3ccc(OC(F)(F)F)cc3)nn12 = < 30%

# batch: return inhibition at 1 µM for each of the 5 compounds below
1. FC(F)(F)Oc1ccc(-c2ccc3nnc(CC4CCOCC4)n3n2)cc1
2. N#CC1(c2ccc(-c3ccc4nnc(C(F)(F)F)n4n3)cc2)CCC1
3. FC(F)(F)c1nnc2ccc(-c3ccc([C@H]4CC4(F)F)cc3)nn12
4. FC(F)(F)Oc1ccc(-c2cn3c(C4CCOCC4)nnc3cn2)cc1
5. FC(F)(F)Oc1ccc(-c2ccc3nnc(CC4CCCOC4)n3n2)cc1 (stereo not drawn)

< 30%
30 to 70%
> 70%
< 30%
30 to 70%

###

Give measured inhibition at 1 µM for each item. Keep answers brief.
target: human NaV1.6 (hNaV1.6) (Homo sapiens (Human), UniProt Q9UQD0); test: INaL inhibition at hNaV1.6, PatchXpress electrophysiology; type: cell-based; settings: HEK293; 1 μM; HEK-293 cells expressing hNaV1.6; late current evoked by 300 nM ATX-II; read-out: INaL v1.6 (1 μM, % Inhibition)

Look over these answered cases.
C[C@@H](Oc1ncc(-c2cn3c(C(F)(F)F)nnc3cn2)cc1F)C(F)(F)F (single isomer, unassigned) = > 70%
Fc1cc(-c2ccc3nnc(C(F)(F)F)n3n2)ccc1OC(F)(F)F = > 70%
COCc1ccc(-c2cn3c(C(F)(F)F)nnc3cn2)cc1 = < 30%
N#Cc1cc(C(F)(F)F)ccc1-c1ccc2nnc(C(F)(F)F)n2n1 = < 30%
COCc1cc(-c2cn3c(C(F)(F)F)nnc3cn2)ccc1OC(F)(F)F = 30 to 70%
COC(F)(F)c1nnc2cnc(-c3ccc(OC(F)(F)F)cc3)cn12 = > 70%

# batch: return inhibition at 1 µM for each of the 7 molecules below
1. FC(F)(F)Cc1nnc2ccc(-c3ccc(OC(F)(F)F)cc3)nn12
2. FC(F)(F)Oc1ccc(-c2cn3c(C[C@@H]4CCCOC4)nnc3cn2)cc1 (single isomer, unassigned)
3. FC(F)(F)Oc1cccc(-c2ccc3nnc(C(F)(F)F)n3n2)c1
4. FC(F)(F)Oc1ccc(-c2cn3c(C[C@H]4CCCOC4)nnc3cn2)cc1 (single isomer, unassigned)
5. COCc1ccc(-c2cn3c(C(F)F)nnc3cn2)cc1
6. Cc1cc(C(F)(F)F)ccc1-c1cn2c(C(F)(F)F)nnc2cn1
7. FC1(F)CC(Oc2ccc(-c3ccc4nnc(C(F)(F)F)n4n3)cn2)C1

["30 to 70%", "< 30%", "30 to 70%", "< 30%", "< 30%", "30 to 70%", "> 70%"]

# batch: return inhibition at 1 µM for each of the 3 molecules below
1. Cc1cc(OC(F)(F)F)ccc1-c1ccc2nnc(C(F)F)n2n1
2. COc1cc(OC(F)(F)F)ccc1-c1ccc2nnc(C(F)(F)F)n2n1
3. O=C(Cc1nnc2cnc(-c3ccc(OC(F)(F)F)cc3)cn12)N1CCCC1

> 70%
> 70%
30 to 70%

# batch: return inhibition at 1 µM for each of the 2 molecules below
1. Cc1cc(-c2ccc3nnc(C(F)(F)F)n3n2)ccc1C(F)(F)F
2. Fc1cc(OC(F)(F)F)ccc1-c1ccc2nnc(C(F)(F)F)n2n1

1: > 70%; 2: > 70%

###

Give measured inhibition at 1 µM for each item. Keep answers brief.
Biological target: human NaV1.6 (hNaV1.6) (Homo sapiens (Human))
Assay: INaL inhibition at hNaV1.6, PatchXpress electrophysiology
Type: cell-based
Conditions: HEK293; 1 μM; HEK-293 cells expressing hNaV1.6; late current evoked by 300 nM ATX-II; read-out: INaL v1.6 (1 μM, % Inhibition)
Procedure: Functional characterization of exemplary compounds to modulate INaL expressed by the Nay 1.6 voltage-gated sodium channel was accomplished using the PatchXpress™ high throughput electrophysiology platform (Molecular Devices, Sunnyvale, Calif.). […] INaL amplitude and stability were determined by analyzing the mean current amplitude over the final 20 ms of the test pulse. […]

Look over these answered cases.
Fc1ccc(-c2nnc3cnc(-c4cnc(OCC(F)(F)F)c(F)c4)cn23)cc1 = > 70%
C[C@H](Oc1ccc(-c2ccc3nnc(C(F)(F)F)n3n2)cn1)C(F)(F)F = > 70%
Nc1cc(-c2ccc(OC(F)(F)F)cc2)nn2c(C(F)(F)F)nnc12 = < 30%
FC(F)(F)Oc1ccc(-c2cc(Cl)c3nnc(C(F)(F)F)n3n2)cc1 = < 30%
COCc1cc(-c2ccc3nnc(C(F)F)n3n2)ccc1C(F)(F)F = 30 to 70%
FC(F)c1nnc2cnc(-c3ccc(OC4CC(F)(F)C4)cc3)cn12 = 30 to 70%
COc1cc(OC(F)(F)F)ccc1-c1ccc2nnc(C(F)(F)OC)n2n1 = > 70%
COCc1cc(-c2ccc(OC(F)(F)F)cc2)nn2c(C(F)(F)F)nnc12 = < 30%

# batch: return inhibition at 1 µM for each of the 6 compounds below
1. FC(F)(F)c1ccc(-c2cn3c(C(F)(F)F)nnc3cn2)cc1
2. FC(F)(F)Oc1ccc(-c2cnc3nnc(C(F)(F)F)n3c2)cc1
3. Cc1cc(OC(F)(F)F)ccc1-c1cn2c(C(F)F)nnc2cn1
4. FC(F)(F)Oc1ccc(-c2nn3c(C(F)(F)F)nnc3cc2Cl)cc1
5. FC(F)(F)Oc1ccc(-c2ccc3nnc(C[C@@H]4CCCCO4)n3n2)cc1 (single isomer, unassigned)
6. FC(F)(F)Oc1ccc(-c2cn3c(C(F)(F)F)nnc3cn2)cc1

["30 to 70%", "< 30%", "> 70%", "> 70%", "30 to 70%", "> 70%"]

# batch: return inhibition at 1 µM for each of the 4 compounds below
1. Nc1cc2nnc(C(F)(F)F)n2nc1-c1ccc(OC(F)(F)F)cc1
2. CC(C)OCc1ccc(-c2cn3c(C(F)(F)F)nnc3cn2)cc1
3. COCc1cc(OC(F)(F)F)ccc1-c1cn2c(C(F)F)nnc2cn1
4. FC(F)c1nnc2cnc(-c3ccc([C@@H]4CC4(F)F)cc3)cn12

1. < 30%
2. < 30%
3. > 70%
4. 30 to 70%
